Catalogue of molecules with associated pEC50
system_name: Calcium Sensing Receptor (CaSR) (Homo sapiens)
Sequence (P41180 20-1078): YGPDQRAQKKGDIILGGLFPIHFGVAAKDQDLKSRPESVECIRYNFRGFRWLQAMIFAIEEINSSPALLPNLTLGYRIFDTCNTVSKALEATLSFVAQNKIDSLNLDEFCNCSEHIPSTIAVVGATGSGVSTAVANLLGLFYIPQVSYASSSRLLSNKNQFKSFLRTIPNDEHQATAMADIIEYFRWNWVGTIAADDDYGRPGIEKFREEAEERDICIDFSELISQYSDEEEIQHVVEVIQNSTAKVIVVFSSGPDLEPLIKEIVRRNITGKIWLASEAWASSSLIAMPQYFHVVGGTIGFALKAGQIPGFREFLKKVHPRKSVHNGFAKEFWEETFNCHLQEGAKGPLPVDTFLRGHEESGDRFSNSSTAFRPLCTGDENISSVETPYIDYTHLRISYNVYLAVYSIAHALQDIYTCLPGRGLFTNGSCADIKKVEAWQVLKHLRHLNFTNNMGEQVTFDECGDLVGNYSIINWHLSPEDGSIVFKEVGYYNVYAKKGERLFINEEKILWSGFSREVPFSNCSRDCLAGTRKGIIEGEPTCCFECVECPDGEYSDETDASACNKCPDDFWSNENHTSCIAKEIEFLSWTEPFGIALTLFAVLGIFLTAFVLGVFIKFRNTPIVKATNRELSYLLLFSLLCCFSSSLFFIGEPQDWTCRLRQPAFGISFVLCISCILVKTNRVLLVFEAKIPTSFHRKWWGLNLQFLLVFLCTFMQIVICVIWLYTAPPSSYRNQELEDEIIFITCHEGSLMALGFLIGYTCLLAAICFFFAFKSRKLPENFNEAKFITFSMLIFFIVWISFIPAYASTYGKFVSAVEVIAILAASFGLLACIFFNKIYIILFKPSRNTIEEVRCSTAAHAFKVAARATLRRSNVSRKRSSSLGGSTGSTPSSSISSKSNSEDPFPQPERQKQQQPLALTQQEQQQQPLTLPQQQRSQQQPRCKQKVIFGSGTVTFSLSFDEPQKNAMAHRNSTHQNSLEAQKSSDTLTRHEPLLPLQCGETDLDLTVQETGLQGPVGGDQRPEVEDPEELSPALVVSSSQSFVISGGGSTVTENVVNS
test_name: In-vitro assay of calcimimetics through modulation of Calcium Sensing Receptor (intracellular calcium increase, FLIPR)
condition_parameters: stably transfected HEK293 cells expressing hCaSR; Fluo4NW dye; 0.3 mM CaCl2; 8-point assay; read-out: EC50 Range
Method: Certain illustrative compounds within the scope of the invention are screened for CaSR activity according to the procedure given below. The screening of the compounds may also be carried by other methods and procedures known to skilled in the art. […] The ability of the compounds to modulate Calcium sensing receptor is determined by measuring an increase in intracellular calcium [Ca^2+]i. […] The activities of the compounds are measured in FLIPR using 0.3 mM CaCl2 in 20 mM HEPES base buffer. […]
pEC50: −log10 of the molar value. Counter-ions that a name gives are not always drawn.

Prompt: Which pEC50 value belongs to Cc1ccc(C2C[C@@H](CCCN[C@H](C)c3cccc4ccccc34)Cc3ccccc32)cc1C(=O)O (stereo partly drawn) [Example 31, hydrochloride] ?
Response: > 7.70

Prompt: Give the measured pEC50 of Cc1ccc(N2CC(CCN[C@H](C)c3cccc4ccccc34)Cc3ccccc32)cc1C(=O)O (single isomer, unassigned) [Example 76b, hydrochloride] .
Response: 7.30 to 7.70

---
Prompt: What value of measured pEC50 is listed for Cc1ccc(C(=O)O)cc1N1CC(CN[C@H](C)c2cccc3ccccc23)Cc2ccccc21 (single isomer, unassigned) [Example 70b, hydrochloride] ?
Response: 6.70 to 7.30

Prompt: I am curious: what pEC50 value has been reported for COc1cc([C@@H](C)NC[C@@H]2Cc3ccccc3C(c3ccc(C)c(C(=O)O)c3C)C2)ccc1F (stereo partly drawn) [Example 17, hydrochloride] ?
Response: > 7.70

Prompt: Recorded pEC50 of C[C@@H](NCC1Cc2ccccc2C(c2ccc(F)c(C(=O)O)c2)C1)c1cccc2ccccc12 (single isomer, unassigned) [Example 7b, hydrochloride] , please.
Response: > 7.70

Prompt: Report pEC50 for Cc1cc(C2C[C@H](CN[C@H](C)c3cccc4ccccc34)Cc3ccccc32)ccc1C(=O)O (single isomer, unassigned) [Example 13b, hydrochloride] please.
Response: > 7.70
